// reported MIC per item
- Tested on: S. typhimurium IFO 12529
- Protocol: MIC, S. typhimurium IFO 12529
- Assay type: cell-based
- Settings: Salmonella enterica, read-out: MIC
// return numeric value only (unit: µg/mL, not printed)

Molecule: CN(C)CCn1nnnc1SCC1=C(C(=O)O)N2C(=O)[C@@H](NC(=O)Cc3csc(N)n3)[C@H]2SC1
Value unit: µg/mL
Readout number: 0.2
//
Molecule: Cc1nnc(SCC2=C(C(=O)O)N3C(=O)C(NC(=O)C(=NOCC(=O)NNC(=O)c4ccc(O)c(O)c4)c4csc(N)n4)C3SC2)s1 (stereo not drawn)
Value unit: µg/mL
Readout number: 0.1
//
Molecule: Cn1nnnc1SCC1=C(C(=O)O)N2C(=O)C(NC(=O)C(=NOCC(=O)NN=Cc3ccc(O)c(O)c3)c3csc(N)n3)C2SC1 (stereo not drawn)
Value unit: µg/mL
Readout number: 0.39
//
Molecule: CO[C@@]1(NC(=O)C(C(=O)O)c2ccc(O)cc2)C(=O)N2C(C(=O)O)=C(CSc3nnnn3C)CO[C@@H]21 (stereo partly drawn)
Value unit: µg/mL
Readout number: 0.1
//
Molecule: CO/N=C(\C(=O)N[C@@H]1C(=O)N2C(C(=O)O)=C(COC(C)=O)CS[C@H]12)c1csc(N)n1
Value unit: µg/mL
Readout number: 0.2

Task: What value of measured MIC is listed for Cn1nnnc1SCC1=C(C(=O)O)N2C(=O)C(NC(=O)C(=NOCC(=O)NNC(=O)c3ccc(O)c(O)c3)c3csc(N)n3)C2SC1 (stereo not drawn) ?
Result: 0.05
